Assay: Equilibrium surface tension, Kruss K-12 tensiometer with platinum Wilhelmy plate
Assay type: physicochemical
Conditions: 0.1 wt % in water, 25±1° C.
recorded-metric: EST (0.1 WT %, mN/m)
Just the number in mN/m, nothing appended.

INSERT INTO results (given_smiles, recorded_value) VALUES
  ('CCCCN(CCN(CCCC)C[C@H](O)[C@@H](O)[C@H](O)[C@H](O)CO)C[C@H](O)[C@@H](O)[C@H](O)[C@H](O)CO', 50),
  ('CCCCCCCCNC[C@H](O)[C@@H](O)[C@H](O)[C@H](O)CO', 35),
  ('CCCCCCN(CCN(CCCCCC)C[C@H](O)[C@@H](O)[C@H](O)[C@H](O)CO)C[C@H](O)[C@@H](O)[C@H](O)[C@H](O)CO', 33);

Moving on to the next compound.
**Q:** Report EST (0.1 WT %, mN/m) for CCCCCCNC[C@H](O)[C@@H](O)[C@H](O)[C@H](O)CO
**A:** 60
